// IC50 collected for E. coli GroEL/ES (Escherichia coli, UniProt P0A6F5)
Note to self: number, then unit, no commentary.

C=C(NC(=O)C(=C)NC(=O)c1csc(C2=N[C@@H]3c4csc(n4)[C@H]4NC(=O)c5csc(n5)[C@H]([C@](C)(O)[C@@H](C)O)NC(=O)[C@H]5CSC(=N5)/C(=C/C)NC(=O)[C@H]([C@@H](C)O)NC(=O)c5csc(n5)[C@]3(CC2)NC(=O)[C@H](C)NC(=O)C(=C)NC(=O)[C@H](C)NC(=O)[C@H]([C@@H](C)CC)N[C@@H]2C=Cc3c([C@H](C)O)cc(nc3[C@H]2O)C(=O)O[C@@H]4C)n1)C(N)=O :: 6.8 µM

-- ask Returns the measured IC50 for the input molecule. Input: O=C(OC[C@H]1O[C@@H](OC(=O)c2cc(O)c(O)c(OC(=O)c3cc(O)c(O)c(O)c3)c2)[C@H](OC(=O)c2cc(O)c(O)c(OC(=O)c3cc(O)c(O)c(O)c3)c2)[C@@H](OC(=O)c2cc(O)c(O)c(OC(=O)c3cc(O)c(O)c(O)c3)c2)[C@@H]1OC(=O)c1cc(O)c(O)c(OC(=O)c2cc(O)c(O)c(O)c2)c1)c1cc(O)c(O)c(OC(=O)c2cc(O)c(O)c(O)c2)c1
-- reply 0.87 µM
